The following compounds are shown together with reported Insecticidal activity (mortality rate grade) Aphiscraccivora values.
Tested on: Aphiscraccivora
Assay: Insecticidal activity, dipping method
Format: in vivo
Conditions: 500 mg/L test solution
Recorded endpoint: Insecticidal activity (mortality rate grade) Aphiscraccivora

> print(dat)
                                   compound              reported.result
1  CCC(=O)N1N=C(C)CN(N=Cc2ccc[n+](CCCS(=O)(=O)[O-])c2)C1=O [IV-5]                  9 (90˜100%)
2  CCC(=O)N1N=C(C)CN(N=Cc2ccc[n+](CCCCS(=O)(=O)[O-])c2)C1=O [IV-9]                  9 (90˜100%)
3  CC(=O)N1N=C(C)CN(N=Cc2ccc[n+](CC=CS(=O)(=O)[O-])c2)C1=O [IV-6]                  9 (90˜100%)
4  O=C(NCCc1ccc(OC(F)(F)F)cc1)c1c[n+](CCCCS(=O)(=O)O)ccc1C(F)(F)F [Compound I-6]                   7 (70˜90%)
5  CCC(=O)N1N=C(C)CN(N=Cc2ccc[n+](CC=CS(=O)(=O)[O-])c2)C1=O [IV-7]                  9 (90˜100%)
6  COC(=O)Nc1nc2ccccc2n1CCCS(=O)(=O)O [III-1]  0 (mortality rate of 0˜30%)
7  COC(=O)Nc1nc2ccccc2n1CCCCS(=O)(=O)O [III-3]  0 (mortality rate of 0˜30%)
8  CC1=NNC(=O)N(N=Cc2ccc[n+](CC=CS(=O)(=O)[O-])c2)C1 [IV-2]                  9 (90˜100%)
9  CC(=O)N1N=C(C)CN(N=Cc2ccc[n+](CCCCS(=O)(=O)[O-])c2)C1=O [IV-8]                  9 (90˜100%)
